src = patent US9266922B2

biological target: HLA-A*0201 (Homo sapiens, UniProt P04439, D140Y/D185E/D98H/E176V/E277Q/G131W/G231S/I119V/I121R/I166T/I218V/L300P/L318F/N151K/N90K/P208A/P217A/Q86G/Q94H/R138H/R169H/T345S); assay: biochemical; assay type: binding; details: peptide concentration giving 50% of optimal binding; 10^−4 to 10^−9 M, 21° C. for 18 h; read-out: Affinity (ED50)
Residues, ends and D or L forms follow the SMILES beside them.
PROPERTY_LABEL: EC50 (nM)
Kindly answer with a numeric value in nM, unit omitted.

Some solved entries appear below for comparison.
CC[C@H](C)[C@H](N)C(=O)N[C@@H](CC(C)C)C(=O)N[C@@H](Cc1c[nH]cn1)C(=O)N[C@H](C(=O)N[C@@H](CO)C(=O)N[C@@H](Cc1ccccc1)C(=O)N[C@@H](CC(C)C)C(=O)N[C@@H](C)C(=O)N[C@@H](CCC(=O)O)C(=O)O)C(C)C [Peptide 239] (H-ILHVSFLAE-OH; N-terminus and C-terminus assumed)	200
CC[C@H](C)[C@H](NC(=O)[C@@H](N)Cc1c[nH]cn1)C(=O)N[C@@H](CC(C)C)C(=O)N[C@@H](Cc1c[nH]cn1)C(=O)N[C@H](C(=O)N[C@@H](CO)C(=O)N[C@@H](Cc1ccccc1)C(=O)N[C@@H](CC(C)C)C(=O)N[C@@H](C)C(=O)O)C(C)C [Peptide 238] (H-HILHVSFLA-OH; N-terminus and C-terminus assumed)	60

Next:
Complete the entry with EC50 for CC[C@H](C)[C@H](NC(=O)[C@@H](NC(=O)CN)C(C)C)C(=O)N[C@@H](C)C(=O)N[C@@H](C)C(=O)N[C@@H](CC(C)C)C(=O)N[C@@H](CC(C)C)C(=O)N[C@@H](Cc1ccccc1)C(=O)N[C@@H](CS)C(=O)O [Peptide 354] (H-GVIAALLFC-OH; N-terminus and C-terminus assumed)
90

----------
# % Binding values compiled below
target: HLA-A*0201 (Homo sapiens, UniProt P04439, D140Y/D185E/D98H/E176V/E277Q/G131W/G231S/I119V/I121R/I166T/I218V/L300P/L318F/N151K/N90K/P208A/P217A/Q86G/Q94H/R138H/R169H/T345S); test: iTOPIA EDS MHC peptide binding assay; conditions: HLA-A*0201 monomer, relative to positive control peptide, 21° C. for 18 h
Residues, ends and D or L forms follow the SMILES beside them.
Kindly answer with a numeric value in %, unit omitted.

CSCC[C@H](NC(=O)[C@@H](N)CO)C(=O)N[C@@H](CC(N)=O)C(=O)NCC(=O)N[C@@H](CCC(N)=O)C(=O)N1CCC[C@H]1C(=O)N[C@@H](CC(C)C)C(=O)N[C@H](C(=O)N[C@@H](CS)C(=O)O)[C@@H](C)O [Peptide 215] (H-SMNGQPLTC-OH; N-terminus and C-terminus assumed)	81

Next:
Complete the entry with % Binding for CC(C)C[C@H](N)C(=O)N[C@H](C(=O)N[C@@H](CO)C(=O)N[C@@H](C)C(=O)N[C@@H](CO)C(=O)N[C@H](C(=O)N[C@H](C(=O)N[C@H](C(=O)N[C@H](C(=O)O)C(C)C)C(C)C)C(C)C)C(C)C)C(C)C [Peptide 345] (H-LVSASVVVV-OH; N-terminus and C-terminus assumed)
51

----------
target: HLA-A*0201 (Homo sapiens, UniProt P04439, D140Y/D185E/D98H/E176V/E277Q/G131W/G231S/I119V/I121R/I166T/I218V/L300P/L318F/N151K/N90K/P208A/P217A/Q86G/Q94H/R138H/R169H/T345S); test: iScore calculation (iTOPIA system software); details: multiparametric score of binding, off-rate and affinity
Residues, ends and D or L forms follow the SMILES beside them.
# iScore values compiled below
Keep the answer to the number alone.

Some solved entries appear below for comparison.
CC[C@H](C)[C@H](NC(=O)[C@H](Cc1c[nH]cn1)NC(=O)[C@H](Cc1c[nH]c2ccccc12)NC(=O)[C@H](CC(C)C)NC(=O)[C@H](CC(N)=O)NC(=O)[C@H](CCC(N)=O)NC(=O)[C@@H](N)CC(=O)O)C(=O)NCC(=O)N[C@@H](CCCNC(=N)N)C(=O)O [Peptide 255]	0.539
CC[C@H](C)[C@H](N)C(=O)N[C@@H](CC(C)C)C(=O)N[C@@H](Cc1c[nH]cn1)C(=O)N[C@H](C(=O)N[C@@H](CO)C(=O)N[C@@H](Cc1ccccc1)C(=O)N[C@@H](CC(C)C)C(=O)N[C@@H](C)C(=O)N[C@@H](CCC(=O)O)C(=O)O)C(C)C [Peptide 239] (H-ILHVSFLAE-OH; N-terminus and C-terminus assumed)	0.51

Complete the entry with iScore for CC[C@H](C)[C@H](NC(=O)[C@@H](NC(=O)CN)C(C)C)C(=O)N[C@@H](C)C(=O)N[C@@H](C)C(=O)N[C@@H](CC(C)C)C(=O)N[C@@H](CC(C)C)C(=O)N[C@@H](Cc1ccccc1)C(=O)N[C@@H](CS)C(=O)O [Peptide 354] (H-GVIAALLFC-OH; N-terminus and C-terminus assumed)
0.845

----------
biological target: HLA-A*0201 (Homo sapiens, UniProt P04439, D140Y/D185E/D98H/E176V/E277Q/G131W/G231S/I119V/I121R/I166T/I218V/L300P/L318F/N151K/N90K/P208A/P217A/Q86G/Q94H/R138H/R169H/T345S); test: iTOPIA EDS MHC peptide binding assay; conditions: HLA-A*0201 monomer, relative to positive control peptide, 21° C. for 18 h
Residues, ends and D or L forms follow the SMILES beside them.
PROPERTY_LABEL: % Binding (%)
Kindly answer with a numeric value in %, unit omitted.

CC(C)C[C@H](NC(=O)[C@H](C)NC(=O)[C@H](C)N)C(=O)N[C@@H](CC(C)C)C(=O)N[C@@H](Cc1ccccc1)C(=O)N[C@@H](CS)C(=O)N[C@@H](CC(C)C)C(=O)N[C@@H](CC(C)C)C(=O)N[C@H](C(=O)O)C(C)C [Peptide 357] (H-AALLFCLLV-OH; N-terminus and C-terminus assumed)	56
CC[C@H](C)[C@H](NC(=O)[C@@H](N)Cc1c[nH]cn1)C(=O)N[C@@H](CC(C)C)C(=O)N[C@@H](Cc1c[nH]cn1)C(=O)N[C@H](C(=O)N[C@@H](CO)C(=O)N[C@@H](Cc1ccccc1)C(=O)N[C@@H](CC(C)C)C(=O)N[C@@H](C)C(=O)O)C(C)C [Peptide 238] (H-HILHVSFLA-OH; N-terminus and C-terminus assumed)	87

Next:
Complete the entry with % Binding for CC[C@H](C)[C@H](NC(=O)[C@@H](NC(=O)CNC(=O)[C@@H](NC(=O)[C@@H](NC(=O)[C@@H](N)C(C)C)C(C)C)C(C)C)C(C)C)C(=O)N[C@@H](C)C(=O)N[C@@H](C)C(=O)N[C@@H](CC(C)C)C(=O)O [Peptide 351, VVVGVIAAL] (H-VVVGVIAAL-OH; N-terminus and C-terminus assumed)
58

----------
# CEM.T2 % Residual Binding values compiled below
target: HLA A*0201 on CEM.T2 cell line (Homo sapiens, UniProt P04439, D140Y/D185E/D98H/E176V/E277Q/G131W/G231S/I119V/I121R/I166T/I218V/L300P/L318F/N151K/N90K/P208A/P217A/Q86G/Q94H/R138H/R169H/T345S); construct: This cell line expresses HLA A*0201 but is deficient for TAP transporter; endogenous in cells; host or cells: CEM.T2 (T2) cell line; assay: Cellular dissociation assay on CEM.T2 cells; format: cell-based; conditions: after Brefeldin A 1 h and 3 h in serum-free RPMI at 37° C. (4 h)
Residues, ends and D or L forms follow the SMILES beside them.
Kindly answer with a numeric value in %, unit omitted.

CC(C)C[C@H](NC(=O)[C@H](CC(C)C)NC(=O)[C@H](CC(C)C)NC(=O)[C@@H](N)CC(C)C)C(=O)N[C@@H](C)C(=O)N[C@@H](CO)C(=O)N[C@@H](Cc1ccccc1)C(=O)N[C@H](C(=O)NCC(=O)O)[C@@H](C)O [Peptide 19] (H-LLLLASFTG-OH; N-terminus and C-terminus assumed)	0
CC(C)C[C@H](N)C(=O)N[C@H](C(=O)N[C@@H](CO)C(=O)N[C@@H](C)C(=O)N[C@@H](CO)C(=O)N[C@H](C(=O)N[C@H](C(=O)N[C@H](C(=O)N[C@H](C(=O)O)C(C)C)C(C)C)C(C)C)C(C)C)C(C)C [Peptide 345] (H-LVSASVVVV-OH; N-terminus and C-terminus assumed)	0

Complete the entry with CEM.T2 % Residual Binding for CC[C@H](C)[C@H](NC(=O)[C@@H](N)C(C)C)C(=O)N[C@@H](C)C(=O)N[C@@H](C)C(=O)N[C@@H](CC(C)C)C(=O)N[C@@H](CC(C)C)C(=O)N[C@@H](Cc1ccccc1)C(=O)N[C@@H](CS)C(=O)N[C@@H](CC(C)C)C(=O)O [Peptide 355] (H-VIAALLFCL-OH; N-terminus and C-terminus assumed)
24

Complete the entry with CEM.T2 % Residual Binding for CC(C)C[C@H](NC(=O)[C@@H](N)Cc1ccccc1)C(=O)N[C@@H](C)C(=O)N[C@@H](CCC(=O)O)C(=O)N[C@@H](C)C(=O)N[C@@H](CO)C(=O)N[C@H](C(=O)N[C@@H](CCCNC(=N)N)C(=O)NCC(=O)O)C(C)C [Peptide 244] (H-FLAEASVRG-OH; N-terminus and C-terminus assumed)
0
